target: CaV1.2 channel (Rattus norvegicus, UniProt P22002); construct: smooth muscle cells were freshly isolated; endogenous in cells; host or cells: freshly isolated rat tail main artery smooth muscle cells; assay: Whole-cell patch-clamp, Ba2+ current through CaV1.2 channels (IBa1.2) in rat tail artery myocytes; format: cell-based; settings: pulses to 10 mV from Vh −50 mV, read-out: Emax (percent maximal inhibition), IBa1.2
Sequence (P22002 whole entry): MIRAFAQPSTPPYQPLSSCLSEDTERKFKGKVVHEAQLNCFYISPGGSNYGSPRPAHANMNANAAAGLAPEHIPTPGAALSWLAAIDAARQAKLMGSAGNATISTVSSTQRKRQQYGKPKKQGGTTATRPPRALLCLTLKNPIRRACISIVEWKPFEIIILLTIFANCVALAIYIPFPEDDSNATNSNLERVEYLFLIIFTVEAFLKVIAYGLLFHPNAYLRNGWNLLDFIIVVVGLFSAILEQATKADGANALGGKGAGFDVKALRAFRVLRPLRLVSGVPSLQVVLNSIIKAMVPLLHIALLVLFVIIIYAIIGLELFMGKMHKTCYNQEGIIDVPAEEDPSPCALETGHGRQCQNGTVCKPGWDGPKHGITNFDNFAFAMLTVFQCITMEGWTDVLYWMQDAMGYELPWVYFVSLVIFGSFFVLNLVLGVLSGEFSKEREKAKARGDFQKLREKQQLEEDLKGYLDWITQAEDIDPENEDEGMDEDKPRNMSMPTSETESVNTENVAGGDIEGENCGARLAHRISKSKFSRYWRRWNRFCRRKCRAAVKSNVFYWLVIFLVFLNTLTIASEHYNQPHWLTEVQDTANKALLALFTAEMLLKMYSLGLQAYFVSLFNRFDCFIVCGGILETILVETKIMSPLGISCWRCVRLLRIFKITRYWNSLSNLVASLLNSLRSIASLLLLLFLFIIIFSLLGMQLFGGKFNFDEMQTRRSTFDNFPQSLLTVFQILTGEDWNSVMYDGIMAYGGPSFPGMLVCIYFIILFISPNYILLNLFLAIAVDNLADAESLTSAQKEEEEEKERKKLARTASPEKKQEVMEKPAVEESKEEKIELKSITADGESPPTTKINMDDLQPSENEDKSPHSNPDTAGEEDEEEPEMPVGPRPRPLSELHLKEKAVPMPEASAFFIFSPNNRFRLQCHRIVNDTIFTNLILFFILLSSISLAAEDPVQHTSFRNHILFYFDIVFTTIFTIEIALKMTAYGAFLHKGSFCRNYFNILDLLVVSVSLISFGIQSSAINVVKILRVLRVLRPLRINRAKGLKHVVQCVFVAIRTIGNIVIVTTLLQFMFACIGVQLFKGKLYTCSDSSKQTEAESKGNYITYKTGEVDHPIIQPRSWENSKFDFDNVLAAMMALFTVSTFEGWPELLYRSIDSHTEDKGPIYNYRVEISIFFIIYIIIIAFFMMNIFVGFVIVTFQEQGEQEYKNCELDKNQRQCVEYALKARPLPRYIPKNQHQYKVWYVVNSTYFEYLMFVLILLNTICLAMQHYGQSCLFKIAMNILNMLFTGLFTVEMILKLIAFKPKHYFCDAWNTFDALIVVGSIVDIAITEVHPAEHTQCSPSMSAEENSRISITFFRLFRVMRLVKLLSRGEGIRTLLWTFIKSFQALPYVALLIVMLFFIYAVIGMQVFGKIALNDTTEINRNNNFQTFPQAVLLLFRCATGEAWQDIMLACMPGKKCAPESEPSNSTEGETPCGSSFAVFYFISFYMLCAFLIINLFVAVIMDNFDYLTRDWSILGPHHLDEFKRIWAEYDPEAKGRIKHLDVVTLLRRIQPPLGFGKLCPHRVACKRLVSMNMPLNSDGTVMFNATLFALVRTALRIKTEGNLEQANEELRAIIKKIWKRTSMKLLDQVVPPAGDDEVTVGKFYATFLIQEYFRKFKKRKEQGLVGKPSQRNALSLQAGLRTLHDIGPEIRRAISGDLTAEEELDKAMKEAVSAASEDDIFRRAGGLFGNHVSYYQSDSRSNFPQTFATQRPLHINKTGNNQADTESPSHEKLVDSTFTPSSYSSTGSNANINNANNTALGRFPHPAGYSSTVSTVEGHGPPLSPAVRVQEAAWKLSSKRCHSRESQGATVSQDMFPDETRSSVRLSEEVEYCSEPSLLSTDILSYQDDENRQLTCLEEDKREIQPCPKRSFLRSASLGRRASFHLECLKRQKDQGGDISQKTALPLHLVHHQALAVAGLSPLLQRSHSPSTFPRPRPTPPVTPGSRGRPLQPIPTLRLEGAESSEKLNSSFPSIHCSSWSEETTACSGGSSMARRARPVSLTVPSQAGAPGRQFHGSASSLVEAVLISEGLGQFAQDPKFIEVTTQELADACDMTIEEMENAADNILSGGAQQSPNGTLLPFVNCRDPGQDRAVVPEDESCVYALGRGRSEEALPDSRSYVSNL
Sequence (P54290 25-944 partner limits assumed): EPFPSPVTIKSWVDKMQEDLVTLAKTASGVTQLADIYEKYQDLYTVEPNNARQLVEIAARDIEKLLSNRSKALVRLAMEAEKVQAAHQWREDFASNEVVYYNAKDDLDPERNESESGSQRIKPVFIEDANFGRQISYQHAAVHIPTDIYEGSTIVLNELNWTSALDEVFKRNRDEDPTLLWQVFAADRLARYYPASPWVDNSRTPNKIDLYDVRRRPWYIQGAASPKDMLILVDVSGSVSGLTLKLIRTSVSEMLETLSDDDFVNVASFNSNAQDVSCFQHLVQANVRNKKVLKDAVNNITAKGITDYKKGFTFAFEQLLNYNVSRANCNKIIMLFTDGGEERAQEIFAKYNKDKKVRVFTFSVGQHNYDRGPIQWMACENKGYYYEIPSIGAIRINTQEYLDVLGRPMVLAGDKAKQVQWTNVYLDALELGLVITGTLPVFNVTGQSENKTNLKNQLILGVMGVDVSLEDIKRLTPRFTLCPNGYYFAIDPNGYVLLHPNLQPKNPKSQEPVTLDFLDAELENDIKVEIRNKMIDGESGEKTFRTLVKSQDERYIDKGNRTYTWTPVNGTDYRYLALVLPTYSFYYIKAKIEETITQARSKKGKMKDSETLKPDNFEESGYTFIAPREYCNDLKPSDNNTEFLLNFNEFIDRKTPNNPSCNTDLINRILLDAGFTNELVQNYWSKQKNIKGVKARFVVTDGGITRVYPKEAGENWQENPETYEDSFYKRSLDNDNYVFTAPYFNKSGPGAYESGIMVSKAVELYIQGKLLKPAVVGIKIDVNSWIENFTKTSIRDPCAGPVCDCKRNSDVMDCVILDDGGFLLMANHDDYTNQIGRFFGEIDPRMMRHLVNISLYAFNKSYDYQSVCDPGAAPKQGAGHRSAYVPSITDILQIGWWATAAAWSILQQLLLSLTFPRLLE
Sequence (P54290 945-1091 partner limits assumed): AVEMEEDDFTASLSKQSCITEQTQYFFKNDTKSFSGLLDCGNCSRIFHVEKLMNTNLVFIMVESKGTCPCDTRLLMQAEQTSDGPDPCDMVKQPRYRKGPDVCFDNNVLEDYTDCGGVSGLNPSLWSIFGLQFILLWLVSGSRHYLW
Sequence (P54287 whole entry partner): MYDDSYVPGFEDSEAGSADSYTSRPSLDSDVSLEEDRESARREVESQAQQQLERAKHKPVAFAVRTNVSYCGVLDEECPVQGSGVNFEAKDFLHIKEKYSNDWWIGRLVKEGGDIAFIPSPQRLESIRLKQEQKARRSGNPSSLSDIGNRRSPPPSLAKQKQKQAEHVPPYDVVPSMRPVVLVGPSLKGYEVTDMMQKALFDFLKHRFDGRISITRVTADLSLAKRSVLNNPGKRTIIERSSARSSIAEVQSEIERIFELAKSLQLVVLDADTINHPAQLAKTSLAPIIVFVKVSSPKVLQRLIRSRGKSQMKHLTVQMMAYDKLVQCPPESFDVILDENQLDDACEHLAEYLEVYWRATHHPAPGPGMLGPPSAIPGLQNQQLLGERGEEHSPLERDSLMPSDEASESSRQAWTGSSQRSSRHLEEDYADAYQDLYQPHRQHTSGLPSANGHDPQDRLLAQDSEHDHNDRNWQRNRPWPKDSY
Quick rule for you: Emax at 90% or higher means 1.0, lower means 0.0.

Ask | Kindly determine if Emax recorded for CC1(C)CCC[C@]2(C)[C@@H](CC(=O)NCCc3cccc(F)c3)[C@](C)(O)CC[C@@H]12 is above or exactly 90%.
Reply | 1.0

Ask | Next entry: CC1(C)CCCC2(C)C1CCC1(C)OC(=O)CC12 (single isomer, unassigned; (+)) [Compound 5, (+)-sclareolide, reference compound]
Reply | 0.0

Ask | How about this molecule: CC1(C)CCC[C@]2(C)[C@@H](CCOCc3cccc(Cl)c3)[C@](C)(O)CC[C@@H]12
Reply | 0.0

* * *

molecular target: CaV1.2 channel (Rattus norvegicus); construct: smooth muscle cells were freshly isolated; endogenous in cells; experiment: Whole-cell patch-clamp, Ba2+ current through CaV1.2 channels (IBa1.2) in rat tail artery myocytes; settings: pulses to 10 mV from Vh −50 mV, read-out: IC50, IBa1.2 inhibition
Please provide measured pIC50 for the entries that follow.
Lab note: report pIC50 as minus log10 of the concentration in molar units, number only.

Ask | GET /values?readout=pIC50&item= CC1(C)CCC[C@]2(C)[C@@H](CC(=O)Nc3ccccc3-n3cccc3)[C@](C)(O)CC[C@@H]12
Reply | 4.88

Ask | Consider next the molecule CC1(C)CCC[C@]2(C)[C@@H](CCOCc3cccc(Cl)c3)[C@](C)(O)CC[C@@H]12 in the same way.
Reply | 4.68

Ask | Check CC1(C)CCC[C@]2(C)[C@@H](CC(=O)NCCc3cccc(F)c3)[C@](C)(O)CC[C@@H]12 too.
Reply | 4.82

Ask | Please answer likewise for CC1(C)CCC[C@]2(C)[C@@H](CC(=O)NCc3ccco3)[C@](C)(O)CC[C@@H]12
Reply | 4.78

* * *

test system: rat aorta rings; assay: KCl-induced contraction of rat aorta rings (electromechanical coupling); settings: endothelium-denuded rat aorta rings pre-contracted by 60 mM KCl; read-out: IC50, KCl 60 mM-induced contraction
quantity.kind: pIC50
Here pIC50 is given on a logarithmic scale as minus log10 of the concentration in mol/L.

Ask | Given CC1(C)CCCC2(C)C1CCC1(C)OC(=O)CC12 (single isomer, unassigned; (+)) [Compound 5, (+)-sclareolide, reference compound] , state its recorded pIC50.
Reply | 4.53

Ask | And for CC1(C)CCC[C@]2(C)[C@@H](CC(=O)NCCc3cccc(F)c3)[C@](C)(O)CC[C@@H]12 ?
Reply | 5.35

Ask | Similarly, CC1(C)CCC[C@]2(C)[C@@H](CC(=O)NCc3ccco3)[C@](C)(O)CC[C@@H]12 ?
Reply | 5.21

Ask | Moving on to the next compound: CC1(C)CCC[C@]2(C)[C@@H](CC(=O)Nc3ccccc3-n3cccc3)[C@](C)(O)CC[C@@H]12
Reply | 5.03
